From: patent US20250128203A1

- Assay overview: Cyclic voltammetry of isoindigos in DMF (half-wave redox potentials under N2 or CO2)
- Assay type: physicochemical
- Settings: second half-wave potential vs. Fc^+/Fc; 2.5 mM in DMF, 0.1 M NBu4PF6, N2, 298 K
Assay metric: E1/2 in N2 (second) (V)

[
  {
    "Compound": "COC(=O)c1ccc2c(c1)NC(=O)/C2=C1/C(=O)Nc2ccccc21 [6MCIId, Methyl isoindigo-6-carboxylate]",
    "Unit string": "V",
    "E1/2 in N2 (second)": "−1.62"
  },
  {
    "Compound": "O=C1Nc2ccccc2/C1=C1\\C(=O)Nc2ccccc21 [IId, Isoindigo]",
    "Unit string": "V",
    "E1/2 in N2 (second)": "−1.79"
  },
  {
    "Compound": "O=C1Nc2cc(F)c(F)cc2/C1=C1\\C(=O)Nc2cc(F)c(F)cc21 [5566TFIId, 5,5′,6,6′-Tetrafluoroisoindigo]",
    "Unit string": "V",
    "E1/2 in N2 (second)": "−1.68"
  }
]
